Origin of measurements: paper PMC12529666

Target: AGO2 L192P (Homo sapiens, UniProt Q9UKV8 1-859, L192P;S387D;S824A;S828D;S831D;S834A)
Sequence (Q9UKV8 whole entry L192P/S387D/S824A/S828D/S831D/S834A): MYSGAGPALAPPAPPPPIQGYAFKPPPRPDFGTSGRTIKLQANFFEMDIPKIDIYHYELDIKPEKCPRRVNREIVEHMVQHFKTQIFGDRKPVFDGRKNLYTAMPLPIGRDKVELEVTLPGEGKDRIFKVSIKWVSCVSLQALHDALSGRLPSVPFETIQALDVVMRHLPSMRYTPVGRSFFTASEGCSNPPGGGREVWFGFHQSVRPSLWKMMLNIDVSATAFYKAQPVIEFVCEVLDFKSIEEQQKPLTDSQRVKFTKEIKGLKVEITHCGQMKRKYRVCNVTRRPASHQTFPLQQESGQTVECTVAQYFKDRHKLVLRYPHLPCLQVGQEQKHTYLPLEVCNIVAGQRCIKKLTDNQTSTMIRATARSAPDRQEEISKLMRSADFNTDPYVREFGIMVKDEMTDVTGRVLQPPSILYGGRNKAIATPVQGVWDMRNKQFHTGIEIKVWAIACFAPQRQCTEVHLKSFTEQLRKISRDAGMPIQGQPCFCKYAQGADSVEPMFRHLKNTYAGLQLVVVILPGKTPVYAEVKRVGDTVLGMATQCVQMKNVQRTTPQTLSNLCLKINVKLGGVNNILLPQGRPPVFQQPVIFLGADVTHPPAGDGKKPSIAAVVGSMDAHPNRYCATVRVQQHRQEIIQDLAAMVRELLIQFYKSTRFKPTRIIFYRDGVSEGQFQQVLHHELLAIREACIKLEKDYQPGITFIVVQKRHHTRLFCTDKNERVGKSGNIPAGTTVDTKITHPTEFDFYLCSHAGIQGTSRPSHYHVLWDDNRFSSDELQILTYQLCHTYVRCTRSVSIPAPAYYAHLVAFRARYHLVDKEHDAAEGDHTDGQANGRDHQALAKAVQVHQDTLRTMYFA
Assay: RNA Bind-n-Seq (nitrocellulose filter binding and sequencing); miR-122 guide loaded in AGO2; 60 min incubation; 30 mM Tris pH 8.0, 100 mM potassium acetate, 2 mM magnesium acetate, 0.5 mM TCEP, 0.005% NP-40, 0.01 mg/ml yeast tRNA; 3 nM AGO2-miR-122, 100 nM RNA library; 60; high values mean tight binding
Conditions: protein: recombinant; tags: His6 (N-terminal, pFastBac HTA)
Here the recorded binding signal is given for each entry.

{"Binder": "GCATCTTG (ssRNA, constant regions annealed to DNA blockers; guide miR-122 5' phosphate) RNA 1: GAGUUCUACAGUCCGACGAUCCCAACGCAUCUUGCACCUGGAAUUCUCGGGUGCCAA RNA 2: UGGAGUGUGACAAUGGUGUUUG DNA 1: GATCGTCGGACTGTAGAACTC DNA 2: TTGGCACCCGAGAATTCCA", "binding signal": "0.349 fold enrichment over input"}
{"Binder": "GCGTTCCA (ssRNA, constant regions annealed to DNA blockers; guide miR-122 5' phosphate) RNA 1: GAGUUCUACAGUCCGACGAUCCCAACGCGUUCCACACCUGGAAUUCUCGGGUGCCAA RNA 2: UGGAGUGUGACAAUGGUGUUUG DNA 1: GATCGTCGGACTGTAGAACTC DNA 2: TTGGCACCCGAGAATTCCA", "binding signal": "0.477 fold enrichment over input"}
